B1: Formin-binding protein 4, residues 200 to 261; numbered along this chain, Q8N3X1 (parent)
chain: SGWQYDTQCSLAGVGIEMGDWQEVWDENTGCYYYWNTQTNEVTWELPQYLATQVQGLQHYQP

variants of: B1; experiment: abundance fitness (aPCA) (normalised: wild type 0, dead -1); higher = more abundant; growth selection in yeast, the domain comes from the species named; details: Homo sapiens
measurement name: abundance fitness
API note: the answer field is a bare number with no unit suffix.

Use the examples below as a reference point.
- sequence content: "SGWQYDTQCSLAKVGIEMGDWQEVWDENTGCYYYWNTQTNEVTWELPQYLATQVQGLQHYQP [G13K]"
  abundance fitness: -0.107
- sequence content: "SGWQYDTQISLAGVGIEMGDWQEVWDENTGCYYYWNTQTNEVTWELPQYLATQVQGLQHYQP [C9I]"
  abundance fitness: -0.171
- sequence content: "SGWQYDTQCSLAGVGIEMGDWQEVWDENTGCYVYWNTQTNEVTWELPQYLATQVQGLQHYQP [Y33V]"
  abundance fitness: -0.447

Task item: Reported abundance fitness for SGWQYDTQCSLAGVGIEMGDWQEVWDENTGCYYYWNTQTNEVTWELPQYLATQVQGLQIYQP [H59I] : what is it?
Reply: 0.045

Task item: Follow-up item: SGWQYDTQCSLAGVGIEMGDWQEVWDENTGCYYYWNTQTNEVTWELPQYLATQVQGLMHYQP [Q58M]
Reply: -0.067

Task item: // query: SGWQYDTQCSLAGVGIEMGDWQEVWDENTGCYYYWNTQTNEVTWELPQYLATQVQGLQHYMP [Q61M]
Reply: -0.16

Task item: Same lookup for SGWQYDTQCSLAGVGIEMGDWVEVWDENTGCYYYWNTQTNEVTWELPQYLATQVQGLQHYQP [Q22V] , please.
Reply: 0.063

Task item: Try this variant too: SGWQYDTQCSLAGVGIEMGDWQEVWDENTGCYYYWNTQTNEVTWELCQYLATQVQGLQHYQP [P47C]
Reply: -1.22

Task item: For SGWQYDTQCSLAGVGIEMGDWQEVWDENTGCYYYWNTQTSEVTWELPQYLATQVQGLQHYQP [N40S] then?
Reply: -0.057

Task item: And the next one, SGWQYDTQCSLAGVGIEMGDWQEVWDENTGCMYYWNTQTNEVTWELPQYLATQVQGLQHYQP [Y32M] ?
Reply: -0.511

Task item: Repeat with SGWQRDTQCSLAGVGIEMGDWQEVWDENTGCYYYWNTQTNEVTWELPQYLATQVQGLQHYQP [Y5R]
Reply: -0.181
